# tested target: Human Cav3.1 (Homo sapiens (Human))
# test summary: Cav3.1 automated patch clamp assay (SyncroPatch 384PE), HEK-293 natClytin/TASK1+Cav3.1 cell line
# Type: cell-based
# applied conditions: Table 2, HEK-293 natClytin/TASK1+Cav3.1 cells
experimental endpoint: IC50

Example entries and their recorded answers appear below.
CC(C)(C)NC(=O)CN1CC2(C1)CN(Cc1nc3c(Cl)cc(Cl)cc3[nH]1)C2 [Example 39] :: < 1000 nM
O=C(CN1CC2(CN(CCC3CCCC3)C2)C1)Nc1cc(F)cc(Cl)c1 [Example 20] :: < 1000 nM
O=C(CN1CC2(C1)CN(Cc1nc3ccccc3[nH]1)C2)Nc1cc(F)cc(Cl)c1 [Example 18] :: < 1000 nM
Fc1cc(Cl)c2nc(CN3CC4(CN(CCC5CCCC5)C4)C3)[nH]c2c1 [Example 34] :: < 1000 nM
CC(C)(C)c1coc(CN2CC3(CN(CC(=O)Nc4cc(F)cc(Cl)c4)C3)C2)n1 [Example 19] :: 1000 to 10000 nM

Ask: Need IC50 of Cc1cccc2[nH]c(CN3CC4(CN(CC(=O)NC(C)(C)C)C4)C3)nc12 [Example 37] , thanks.
Reply: 1000 to 10000 nM

Ask: I have this molecule here, CC(C)(NC(=O)CN1CC2(C1)CN(Cc1nc3c(Cl)cc(F)cc3[nH]1)C2)C(F)(F)F [Example 31] , and I need its recorded IC50.
Reply: < 1000 nM

Ask: Quick one: IC50 for CC(C)(C)NC(=O)CN1CC2(C1)CN(CC(=O)NC13CC4CC(CC(C4)C1)C3)C2 [Example 12] ?
Reply: 1000 to 10000 nM

====

The following compounds are listed with their measured IC50 values.
# tested target: Human Cav3.1 (Homo sapiens (Human), UniProt O43497)
# Sequence (O43497 whole entry): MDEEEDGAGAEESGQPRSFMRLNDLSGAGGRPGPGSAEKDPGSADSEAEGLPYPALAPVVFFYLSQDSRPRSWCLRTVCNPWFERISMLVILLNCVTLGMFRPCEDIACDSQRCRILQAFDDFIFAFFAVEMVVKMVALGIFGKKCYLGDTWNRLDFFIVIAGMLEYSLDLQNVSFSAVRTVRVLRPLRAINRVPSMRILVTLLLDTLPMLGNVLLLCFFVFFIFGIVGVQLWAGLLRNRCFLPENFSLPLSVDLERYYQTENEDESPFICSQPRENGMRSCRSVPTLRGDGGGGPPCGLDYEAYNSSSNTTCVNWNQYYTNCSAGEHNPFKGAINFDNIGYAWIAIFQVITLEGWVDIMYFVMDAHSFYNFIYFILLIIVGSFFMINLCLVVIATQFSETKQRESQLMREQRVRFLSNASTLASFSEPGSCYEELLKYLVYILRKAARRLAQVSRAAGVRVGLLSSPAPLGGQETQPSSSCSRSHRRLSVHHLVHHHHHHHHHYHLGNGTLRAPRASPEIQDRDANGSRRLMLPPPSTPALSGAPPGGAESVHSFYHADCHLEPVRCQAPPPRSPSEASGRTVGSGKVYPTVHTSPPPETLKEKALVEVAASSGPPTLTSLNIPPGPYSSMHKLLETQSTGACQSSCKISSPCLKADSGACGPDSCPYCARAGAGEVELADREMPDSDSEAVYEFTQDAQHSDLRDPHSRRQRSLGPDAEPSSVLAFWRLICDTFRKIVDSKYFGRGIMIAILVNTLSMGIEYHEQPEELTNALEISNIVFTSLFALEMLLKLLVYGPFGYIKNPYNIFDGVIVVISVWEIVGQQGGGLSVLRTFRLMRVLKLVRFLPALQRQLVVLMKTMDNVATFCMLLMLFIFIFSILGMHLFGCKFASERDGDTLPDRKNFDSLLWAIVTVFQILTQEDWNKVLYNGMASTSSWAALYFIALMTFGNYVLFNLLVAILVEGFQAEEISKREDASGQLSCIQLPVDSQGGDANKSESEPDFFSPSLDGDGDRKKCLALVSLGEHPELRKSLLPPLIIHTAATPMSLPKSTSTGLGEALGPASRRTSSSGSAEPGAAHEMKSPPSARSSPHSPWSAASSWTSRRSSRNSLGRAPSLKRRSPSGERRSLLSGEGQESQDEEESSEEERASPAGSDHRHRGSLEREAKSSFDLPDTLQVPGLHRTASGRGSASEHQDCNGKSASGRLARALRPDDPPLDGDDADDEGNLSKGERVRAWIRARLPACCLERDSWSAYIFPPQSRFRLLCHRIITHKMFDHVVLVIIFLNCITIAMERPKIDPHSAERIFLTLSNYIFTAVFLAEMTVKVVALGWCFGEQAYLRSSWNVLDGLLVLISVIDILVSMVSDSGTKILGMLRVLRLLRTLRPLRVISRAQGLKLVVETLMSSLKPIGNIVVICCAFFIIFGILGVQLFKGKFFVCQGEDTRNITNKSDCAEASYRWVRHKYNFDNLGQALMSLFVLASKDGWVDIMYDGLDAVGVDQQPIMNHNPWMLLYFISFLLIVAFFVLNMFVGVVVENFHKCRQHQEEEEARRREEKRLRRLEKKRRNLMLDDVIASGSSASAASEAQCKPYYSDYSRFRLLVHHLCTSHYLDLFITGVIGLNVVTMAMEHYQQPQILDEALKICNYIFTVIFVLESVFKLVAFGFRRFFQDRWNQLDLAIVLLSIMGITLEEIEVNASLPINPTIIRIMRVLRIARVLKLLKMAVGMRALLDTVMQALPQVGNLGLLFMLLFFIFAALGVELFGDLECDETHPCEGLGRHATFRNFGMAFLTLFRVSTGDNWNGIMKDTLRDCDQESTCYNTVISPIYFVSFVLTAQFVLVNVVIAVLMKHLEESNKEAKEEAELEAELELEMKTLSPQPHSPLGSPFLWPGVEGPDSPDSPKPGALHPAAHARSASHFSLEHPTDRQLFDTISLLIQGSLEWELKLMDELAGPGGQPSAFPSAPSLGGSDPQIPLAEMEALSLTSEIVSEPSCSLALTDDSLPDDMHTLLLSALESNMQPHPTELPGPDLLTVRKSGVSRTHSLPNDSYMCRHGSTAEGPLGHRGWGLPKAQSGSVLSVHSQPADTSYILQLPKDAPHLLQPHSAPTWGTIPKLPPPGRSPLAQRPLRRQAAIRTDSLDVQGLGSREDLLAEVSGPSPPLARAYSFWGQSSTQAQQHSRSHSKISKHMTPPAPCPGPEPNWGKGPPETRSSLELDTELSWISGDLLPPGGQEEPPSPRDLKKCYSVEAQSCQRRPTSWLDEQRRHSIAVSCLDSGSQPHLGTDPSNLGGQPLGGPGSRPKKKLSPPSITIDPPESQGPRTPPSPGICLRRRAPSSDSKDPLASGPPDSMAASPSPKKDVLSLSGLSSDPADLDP
# test summary: Cav3.1 automated patch clamp assay (SyncroPatch 384PE), HEK-293 natClytin/TASK1+Cav3.1 cell line
# Assay type: cell-based
# applied conditions: Table 2, HEK-293 natClytin/TASK1+Cav3.1 cells

Ask: Fill in the blank: the reported IC50 of Cc1nc(CN2CC3(CN(CC(=O)Nc4cc(F)cc(Cl)c4)C3)C2)co1 [Example 22] is ____.
Reply: 1000 to 10000 nM

Ask: Entry under review: CC(C)(C)NC(=O)CN1CC2(CN(CC(=O)Nc3cc(F)cc(Cl)c3)C2)C1 [Example 11] . Reported IC50?
Reply: < 1000 nM

Ask: I am curious: what IC50 value has been reported for CCC(C)(C)NC(=O)CN1CC2(CN(CC(=O)Nc3cc(F)cc(Cl)c3)C2)C1 [Example 10] ?
Reply: < 1000 nM

Ask: I have this compound here, O=C(CN1CC2(C1)CN(CC(=O)NC1CCCC1)C2)Nc1cc(F)cc(Cl)c1 [Example 16] , and I need its recorded IC50.
Reply: 1000 to 10000 nM

Ask: Entry under review: CC(C)(C)NC(=O)CN1CC2(C1)CN(Cc1nc3c(F)cc(OC(F)F)cc3[nH]1)C2 [Example 40] . Reported IC50?
Reply: 1000 to 10000 nM

Ask: Please look up its IC50: CC(C)(C)NC(=O)CN1CC2(CN(CC(=O)Nc3cc(F)cc(OC(F)F)c3)C2)C1 [Example 41]
Reply: 1000 to 10000 nM

Ask: Quick one: IC50 for Cc1coc(CN2CC3(CN(CC(=O)Nc4cc(F)cc(Cl)c4)C3)C2)n1 [Example 30] ?
Reply: 1000 to 10000 nM

Ask: Which measured IC50 value corresponds to CC(C)(C)c1ncc(CN2CC3(CN(CC(=O)Nc4cc(F)cc(Cl)c4)C3)C2)[nH]1 [Example 29] ?
Reply: 1000 to 10000 nM
